Test: Part 3 multiple dose PK, 250 mg BID x 7 days with moderate fat meal
Type: in vivo, human
Settings: human, in vivo, po, 250 mg BID 12 h apart x 7 days, read-out: Geomean Ctau (CV %)
property measured: concentration at 12 h (ng/mL)
Answer in ng/mL, number only, no unit symbol.

Quick one: concentration at 12 h of `Cn1cc(Nc2nccc(-c3ccc4c(c3)CN(C3COC3)CC[C@H]4NC(=O)c3cn(C(C)(C)C)nn3)n2)cn1` ?
407
